measured_on: human cyclooxygenase-2 (Homo sapiens, UniProt P35354)
Sequence (P35354 18-604): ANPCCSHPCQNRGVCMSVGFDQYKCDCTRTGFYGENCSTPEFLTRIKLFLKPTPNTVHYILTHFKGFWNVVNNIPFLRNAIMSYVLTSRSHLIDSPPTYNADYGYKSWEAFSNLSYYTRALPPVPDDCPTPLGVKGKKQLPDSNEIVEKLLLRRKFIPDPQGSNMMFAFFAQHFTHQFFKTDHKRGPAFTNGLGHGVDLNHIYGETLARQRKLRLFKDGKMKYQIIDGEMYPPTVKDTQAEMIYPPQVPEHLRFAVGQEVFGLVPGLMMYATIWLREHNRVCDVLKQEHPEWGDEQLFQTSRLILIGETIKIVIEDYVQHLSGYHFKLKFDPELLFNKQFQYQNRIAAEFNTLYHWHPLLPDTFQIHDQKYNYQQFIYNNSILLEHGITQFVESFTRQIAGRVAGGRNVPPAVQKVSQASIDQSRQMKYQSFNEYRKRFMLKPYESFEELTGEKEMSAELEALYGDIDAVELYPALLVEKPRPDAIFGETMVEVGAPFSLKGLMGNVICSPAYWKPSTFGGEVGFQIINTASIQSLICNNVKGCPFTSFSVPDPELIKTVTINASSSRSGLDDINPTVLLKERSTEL
test_summary: Inhibitory action on cyclooxygenase-2 (conversion of 14C arachidonic acid into PGH2)
condition_label: ratio of IC50 COX-1 to IC50 COX-2
recorded_endpoint: COX-1/COX-2

Here are 4 compounds together with their reported answers.
- Cc1nc(C2CCCCC2)c(-c2ccc(S(C)(=O)=O)c(F)c2)o1: >333
- Cc1nc(C2CCCCC2)c(-c2ccc(S(N)(=O)=O)cc2)o1 [Control 1, reference compound]: 643
- Cc1nc(-c2ccc(F)cc2)c(-c2ccc(S(N)(=O)=O)c(F)c2)o1: 1,233
- Cc1nc(C2CCCCC2)c(-c2ccc(S(N)(=O)=O)c(F)c2)o1: >1,428

Value of COX-1/COX-2 reported for the compound Cc1nc(C2CCCCC2)c(-c2cc(F)c(S(N)(=O)=O)c(F)c2)o1 is >625

###

measured_on: human cyclooxygenase-2 (Homo sapiens)
test_summary: Inhibitory action on cyclooxygenase-2 (conversion of 14C arachidonic acid into PGH2)
condition_label: read-out: IC50 (μM) COX-2; enzyme expressed by yeast with cDNA of human cyclooxygenase-2; preincubation 24° C. 5 minutes
recorded_endpoint: IC50 (µM)
Numbers only, in µM.

IC50 recorded for this molecule, Cc1nc(-c2ccc(F)cc2)c(-c2ccc(S(N)(=O)=O)cc2)o1 [Control 2, reference compound] , is 0.02

###

measured_on: human cyclooxygenase-2 (Homo sapiens)
Sequence (P35354 18-604): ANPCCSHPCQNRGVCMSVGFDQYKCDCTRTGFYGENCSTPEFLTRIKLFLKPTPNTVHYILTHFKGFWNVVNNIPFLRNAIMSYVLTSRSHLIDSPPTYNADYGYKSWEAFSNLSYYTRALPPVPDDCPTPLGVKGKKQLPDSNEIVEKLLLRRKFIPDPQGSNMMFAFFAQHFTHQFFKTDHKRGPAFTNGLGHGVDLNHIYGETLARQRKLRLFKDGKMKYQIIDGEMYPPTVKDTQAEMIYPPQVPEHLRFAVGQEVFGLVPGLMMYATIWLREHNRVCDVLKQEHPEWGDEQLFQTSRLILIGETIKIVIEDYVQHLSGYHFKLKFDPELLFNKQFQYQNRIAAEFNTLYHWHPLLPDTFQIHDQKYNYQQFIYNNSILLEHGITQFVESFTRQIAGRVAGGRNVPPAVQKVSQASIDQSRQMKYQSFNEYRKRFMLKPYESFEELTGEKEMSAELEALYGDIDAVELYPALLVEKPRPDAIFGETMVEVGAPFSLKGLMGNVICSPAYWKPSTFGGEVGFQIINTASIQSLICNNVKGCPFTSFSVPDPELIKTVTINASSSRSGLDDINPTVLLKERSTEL
test_summary: Inhibitory action on cyclooxygenase-2 (conversion of 14C arachidonic acid into PGH2)
So I've got a bunch of compounds here, and I need their IC50 values.

- Cc1nc(C2CCCCC2)c(-c2ccc(S(N)(=O)=O)c(C)c2)o1: > 10 µM

Pending compound:
So the reported IC50 for Cc1nc(C2CCCCC2)c(-c2ccc(S(N)(=O)=O)c(Cl)c2)o1 , on human cyclooxygenase-2 (Homo sapiens), turned out to be > 10 µM
